# ASSAY_PROTOCOL: protease stability score; higher = more stable; yeast display proteolysis, trypsin and chymotrypsin;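 note: relative to predicted unfolded state with 0 unfolded-like and 1 meaning tenfold more protease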
Everything with protease stability score lower than 1 is 0 (no); everything else, including exactly 1, is 1 (yes).

Quick check: does SEEERQLHEFAELIVHDLLTGNFELLSSLLDPHARMEINGKRFHGWTQILDILHRIWLHLRIRDRQVRRVEVYNGRINSRIEVDGEINGRRISLDELLILVVVDGRIRSESIHFE have protease stability score greater than or equal to 1?
1 (yes)

Quick check: does SEDEEMNRLAIELLLRYMRTGDEHKLEELADPNVRIEVGDKESVGREVFLRFWMHLKKKLGIDVVEIELHEIKHYDGRVHSDTRFIMNVNGVEYRRDTEVVAHKVDGKWMLEHVHVE have protease stability score greater than or equal to 1?
0 (no)

Quick check: does DEDDDLALHMFELLLHVWTTGDERIMHELLDPHARLDFNGRTFHGREAFIHYMHEIFRHIRINDSTVRHIRVIDGRLDIESHVDIRVGDKRFEMETHLIVLKVDGKWQVTLYKLS have protease stability score greater than or equal to 1?
1 (yes)

Quick check: does HEEEEIVHRFVEDWFRHLKTGDFRSLFQLLDPHTRTDINGKSIHGRDTIMTEIIENMIRLGVNHMEVRIHHISVVDGQAHIDIWLIIRVNGKEQAHHVHILAQKINGKWFLKDIRFE have protease stability score greater than or equal to 1?
1 (yes)

Quick check: does SEHEEHIKHLAEEWIRLVLTGNEEIIDHLFDPNVRVEIDGREMIGREKMNEWMRHVLRHWRTHIVIRRMTAIGDKAHSDGELILHVGDKTIRTKVHFHLVIIDGRIHEVSVDIR have protease stability score greater than or equal to 1?
1 (yes)

Quick check: does TEDEEYVKHIIDLFWHVKKTGDESHMKELADPNVRIEVDGRDIIGMEDVLKWEKDHREKIKGIRLNVHQWRIIGNKVESDLIVNINGVTIEFHVTVIIVNGKLHSLRVEFE have protease stability score greater than or equal to 1?
1 (yes)

Quick check: does DEHEENVRKDIKEHEETEKTGDEKAYLEMADPHVKVDIDGVDLHGMERVTNFYRELLHKFPNIRIHTRHVDVQGEKVHVETELEWNGVKLETELVWVKINGRWLTHEIHIR have protease stability score greater than or equal to 1?
1 (yes)

Quick check: does NEEEELLHRLAKRFIELFLTGDWEVMEKLFDPHVKIDVNGRESHGREQVWHLLMHLLHELRIHHILIRSFDVFDGRAHSSVEVNGEFNGKRDLTEAEVVIVSVDGKMKSVSIKLR have protease stability score greater than or equal to 1?
1 (yes)

Quick check: does HEDEKIARELTELLLHHFHTGNEESLSKLMDPNVRVIAENHELHGMEKKIEKNRKYLKDLGVDHFSFELRHLDLQGDKARVEGIEHWTINGQHHERHMVLHIVVVNGRLQESSIEIR have protease stability score greater than or equal to 1?
0 (no)

Quick check: does DEDTENVLRALEQFDEKLLTGDWRSLEELADPHVRIDINGQDIHGRETHSEHFRRIKNLKLEHLDVHSFTVIGNKVELDTEIIGEIDGRRRIFRVRMRILKIDGRWVLHSVEIG have protease stability score greater than or equal to 1?
1 (yes)

Quick check: does EEAEQESKNFSEVVHRSLETGDEDNLMNNADPHVRSRIHVGDKRITSHGREVMELILERFKHARVVPTDIEVINGVAIIHMTMEYGDKELRIHLIFFKIDGKWILTHIIIRVD have protease stability score greater than or equal to 1?
0 (no)

Quick check: does DEEHEAIEQFLRIIIENARTGNEEFLYKYFDPHVRIHIDGQNMVGREEWVEWLRQIRHQVDSFHIKHIEVQGDKLILEGHLEIKLHINGQELHKHVEVRYEINKVNGRWLLRSVHIK have protease stability score greater than or equal to 1?
1 (yes)

Quick check: does DEEKDEVREIAERIFHNLRTGDEEKLKHLIDPHVRFEYGDKEHHGWEEMVHFLREWRIHHIHIRDIKVYDGVAHVNGEVDGKFNGRRFRSDTWVIIVTINGRVKQISIQIN have protease stability score greater than or equal to 1?
1 (yes)

Quick check: does NEWQEILLRISEKILKDLFTGNEEVWEKLVDPDAQVHINGKEVHGREEALHFLKELKDELRVEHLFIRDVKLQGDKVSLTSESRGNVNGVRRDMKVEIIVIVINGRVKHEKFIII have protease stability score greater than or equal to 1?
1 (yes)

Quick check: does DEFTELTREVLHRIVTHLRTGNEEELARLMDPNARLEINGKEFHGREEILRLIHELEKKMGIKHVDMVIRRDTIIGDYARVNGEIIIIVDGKEIRLDTEIFILKIDGKWFIRTESIR have protease stability score greater than or equal to 1?
1 (yes)

Quick check: does SEEEKEAERMLRLWIETVKTGNEEVWRELFDPNARMLIGDKESVGREQIEELVRSVYDRLGAKVIHDFYIDRIHVIGDKVEIDSRVDSIINGRRYHLETHIIFVKINGKWVLKSVELR have protease stability score greater than or equal to 1?
1 (yes)

Quick check: does SEDEHHLERALKEWIKVFETGDEDKEKKMADPHMRTDINGVELHGRELMITLIVELWEKLGVDHLEFNLSRFEIVNGQVFLHMEENLFVNGQRLRFKHEIIFNKVDGRWIVEEIRIH have protease stability score greater than or equal to 1?
1 (yes)

Quick check: does DEHLEYVREIARLFWQLLSTGDEENLRKLFDPNARLDVNGQEFHGREEIIIFLRHWRMRSKDIRIHHVNVQGEKMEVDIHTDLEFEVGDFKYEEHTRVEIIVEKINGRWLVRHVKIR have protease stability score greater than or equal to 1?
0 (no)

Quick check: does DEHRELIKEMLERFERSLRTGDEHIQTEMMDPDAKIDINGVELHGRDWASRYIQKYKNVRIEVRTITIQGDKVDIHSTIIIGDKHHSMIIHARKVDGKWVLEEMWVE have protease stability score greater than or equal to 1?
0 (no)

The values you see were collected from the NTF2 design screens of Basanta et al. (2020).
